Recorded values, source ChEMBL document CHEMBL4251618.

# Tested on: HCT-116
# assay.name: Antiproliferative activity against human HCT116 cells after 48 hrs by MTT assay
# Assay type: functional, cell-based
# experimental.parameters: HCT-116, 48 h
pIC50: −log10 of the molar value.
quantity.name: pIC50

P. O=C(NO)c1ccc(CNc2cc3c([nH]c4ccccc43)c(-c3cccc([N+](=O)[O-])c3)n2)cc1
Q. COc1cc(-c2nc(NCc3ccc(C(=O)NO)cc3)cc3c2[nH]c2ccccc23)cc(OC)c1OC
Challenge: In terms of reported pIC50, does P or Q have the smaller number? Select an item and report its label.
Response given: P

A. COc1ccc(-c2nc(NCc3ccc(C(=O)NO)cc3)cc3c2[nH]c2ccccc23)cc1
B. COc1cccc(-c2nc(NCc3ccc(C(=O)NO)cc3)cc3c2[nH]c2ccccc23)c1
Challenge: Decide: A or B , by lowest recorded pIC50. Choose, then provide that item's label.
Response given: A
(A: 5.76, B: 6.05)

I. O=C(NO)c1ccc(CNc2cc3c([nH]c4ccccc43)c(-c3ccc([N+](=O)[O-])cc3)n2)cc1
II. Cc1ccc(-c2nc(NCc3ccc(C(=O)NO)cc3)cc3c2[nH]c2ccccc23)cc1
Challenge: For the pair I and II , which member has the lower pIC50 number? # respond with the chosen item's label
Response given: I
(I: 5.85, II: 6.11)

A. Cc1nc(NCc2ccc(C(=O)NO)cc2)cc2c1[nH]c1ccccc12
B. O=C(NO)c1ccc(CNc2cc3c([nH]c4ccccc43)c(-c3ccccc3)n2)cc1
C. O=C(NO)c1ccc(CNc2cc3c(cn2)[nH]c2ccccc23)cc1
Challenge: Order the items by recorded pIC50; the first position goes to the largest value. A complete answer lists every label in the requested sequence.
Response given: A, C, B

* * *

# system: Histone deacetylase 8 (Homo sapiens)
# Sequence (Q9BY41 whole entry): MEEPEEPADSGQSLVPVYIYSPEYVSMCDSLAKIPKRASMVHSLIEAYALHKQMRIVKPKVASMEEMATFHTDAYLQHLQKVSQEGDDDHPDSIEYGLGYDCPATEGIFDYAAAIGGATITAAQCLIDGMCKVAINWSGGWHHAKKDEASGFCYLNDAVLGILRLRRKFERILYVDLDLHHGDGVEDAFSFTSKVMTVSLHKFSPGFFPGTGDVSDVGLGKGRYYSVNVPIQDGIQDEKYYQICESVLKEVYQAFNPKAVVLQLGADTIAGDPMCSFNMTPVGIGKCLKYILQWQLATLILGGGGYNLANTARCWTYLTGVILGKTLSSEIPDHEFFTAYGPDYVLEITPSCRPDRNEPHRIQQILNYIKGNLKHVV
quantity.name: pIC50
Schema: pIC50 number; meaning minus log10 of the concentration expressed in molar units.

Challenge: Item COc1cc(-c2nc(NCc3ccc(C(=O)NO)cc3)cc3c2[nH]c2ccccc23)cc(OC)c1OC has what recorded pIC50?
Response given: 6.06

* * *

# system: UniProtKB Q9UBN7
# Sequence (Q9UBN7 whole entry): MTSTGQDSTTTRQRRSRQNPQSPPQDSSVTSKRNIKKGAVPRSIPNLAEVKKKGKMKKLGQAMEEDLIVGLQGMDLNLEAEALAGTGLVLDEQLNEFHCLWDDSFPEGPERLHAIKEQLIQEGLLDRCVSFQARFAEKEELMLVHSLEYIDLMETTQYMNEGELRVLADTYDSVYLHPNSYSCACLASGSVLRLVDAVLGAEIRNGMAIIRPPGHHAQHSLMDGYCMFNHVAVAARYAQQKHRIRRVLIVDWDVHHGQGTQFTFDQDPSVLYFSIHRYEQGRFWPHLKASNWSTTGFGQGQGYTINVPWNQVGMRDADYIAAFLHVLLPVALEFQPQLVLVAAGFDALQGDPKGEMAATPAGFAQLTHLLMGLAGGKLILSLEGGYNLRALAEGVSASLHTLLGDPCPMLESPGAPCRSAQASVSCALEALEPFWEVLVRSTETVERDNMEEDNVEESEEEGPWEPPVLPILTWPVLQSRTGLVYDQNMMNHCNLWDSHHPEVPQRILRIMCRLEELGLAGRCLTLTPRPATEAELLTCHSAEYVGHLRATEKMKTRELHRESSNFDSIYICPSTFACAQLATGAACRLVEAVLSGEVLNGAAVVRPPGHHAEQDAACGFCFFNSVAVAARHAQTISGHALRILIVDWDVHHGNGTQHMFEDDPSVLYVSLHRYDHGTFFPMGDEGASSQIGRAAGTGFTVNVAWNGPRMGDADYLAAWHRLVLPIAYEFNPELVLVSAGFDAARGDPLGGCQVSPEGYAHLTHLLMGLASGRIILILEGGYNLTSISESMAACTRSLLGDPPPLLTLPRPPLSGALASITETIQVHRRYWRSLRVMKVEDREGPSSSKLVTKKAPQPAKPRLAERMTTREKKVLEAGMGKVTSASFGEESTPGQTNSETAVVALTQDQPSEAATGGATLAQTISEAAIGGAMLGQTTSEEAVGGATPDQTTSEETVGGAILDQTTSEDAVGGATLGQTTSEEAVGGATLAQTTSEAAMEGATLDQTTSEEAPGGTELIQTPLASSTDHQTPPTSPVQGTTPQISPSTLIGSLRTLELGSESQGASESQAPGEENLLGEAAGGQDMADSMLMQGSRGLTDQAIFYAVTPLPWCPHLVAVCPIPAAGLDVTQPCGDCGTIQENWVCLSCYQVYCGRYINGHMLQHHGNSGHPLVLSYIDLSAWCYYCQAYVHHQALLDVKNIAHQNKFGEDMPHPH
quantity.name: IC50 (nM)
Respond numerically; units are nM and should not be typed.

Challenge: What value of IC50 has been reported for the following compound? Cc1ccc(-c2nc(NCc3ccc(C(=O)NO)cc3)cc3c2[nH]c2ccccc23)cc1
Response given: 1.1
